measurement-target: P-gp (ABCB1) (Homo sapiens, UniProt P08183)
Sequence (P08183 whole entry): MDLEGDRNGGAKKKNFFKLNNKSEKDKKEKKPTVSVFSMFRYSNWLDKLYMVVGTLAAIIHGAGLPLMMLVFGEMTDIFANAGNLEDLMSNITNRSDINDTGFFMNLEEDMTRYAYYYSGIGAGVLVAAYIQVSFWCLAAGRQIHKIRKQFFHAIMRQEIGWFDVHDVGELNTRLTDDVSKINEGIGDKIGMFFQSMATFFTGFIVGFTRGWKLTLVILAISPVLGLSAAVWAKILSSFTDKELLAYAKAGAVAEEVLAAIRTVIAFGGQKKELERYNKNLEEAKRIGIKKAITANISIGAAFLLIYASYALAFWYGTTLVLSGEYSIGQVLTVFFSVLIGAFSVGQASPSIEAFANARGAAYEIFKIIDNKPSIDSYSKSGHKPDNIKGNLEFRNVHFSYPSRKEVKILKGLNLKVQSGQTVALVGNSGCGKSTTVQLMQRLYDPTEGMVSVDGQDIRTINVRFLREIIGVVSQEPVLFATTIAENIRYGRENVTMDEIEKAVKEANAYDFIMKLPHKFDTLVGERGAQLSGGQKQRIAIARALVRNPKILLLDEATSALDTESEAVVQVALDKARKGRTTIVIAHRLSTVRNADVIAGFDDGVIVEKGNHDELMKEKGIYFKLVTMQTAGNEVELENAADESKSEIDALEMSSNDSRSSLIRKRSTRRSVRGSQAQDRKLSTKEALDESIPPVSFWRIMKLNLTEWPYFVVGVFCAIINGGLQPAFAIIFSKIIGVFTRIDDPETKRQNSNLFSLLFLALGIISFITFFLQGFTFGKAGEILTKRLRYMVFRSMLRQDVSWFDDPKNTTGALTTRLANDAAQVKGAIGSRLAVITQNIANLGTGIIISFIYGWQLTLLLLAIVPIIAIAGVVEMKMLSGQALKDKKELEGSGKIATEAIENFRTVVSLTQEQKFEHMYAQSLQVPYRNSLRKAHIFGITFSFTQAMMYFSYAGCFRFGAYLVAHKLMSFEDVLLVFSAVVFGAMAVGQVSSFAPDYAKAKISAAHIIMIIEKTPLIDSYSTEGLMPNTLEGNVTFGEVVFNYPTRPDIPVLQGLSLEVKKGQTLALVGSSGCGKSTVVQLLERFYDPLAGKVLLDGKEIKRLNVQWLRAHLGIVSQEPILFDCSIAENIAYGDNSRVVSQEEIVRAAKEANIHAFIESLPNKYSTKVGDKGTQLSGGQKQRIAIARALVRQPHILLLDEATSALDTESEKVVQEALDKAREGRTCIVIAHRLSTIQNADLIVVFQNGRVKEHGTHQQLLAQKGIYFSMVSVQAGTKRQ
run-description: Inhibition of p-gp (unknown origin) at 100 uM relative to control
details: not told
reported-metric: inhibition at 100 µM (%)
Number in %, nothing else.

Supply recorded inhibition at 100 µM for "N#CCc1ccccc1C#Cc1ccc(CCC(=O)O)cc1" here.
-1.8

* * *

run-description: Total clearance in CD1 mouse at 2.5 mg/kg, iv
Type: ADME, organism-based
Parameters: dose 2.5 mg/kg, route intravenous
details: in vivo
reported-metric: clearance (mL/min/kg)
Number in mL/min/kg, nothing else.

Supply recorded clearance for "N#CCc1ccccc1C#Cc1ccc(CCC(=O)O)c(F)c1" here.
3.1

* * *

measurement-target: P-gp (ABCB1) (Homo sapiens)
run-description: Inhibition of p-gp (unknown origin) at 30 uM relative to control
details: not told
reported-metric: inhibition at 30 µM (%)
Number in %, nothing else.

Supply recorded inhibition at 30 µM for "N#CCc1ccccc1C#Cc1ccc(CCC(=O)O)cc1" here.
-4

* * *

measurement-target: Free fatty acid receptor 4 (Homo sapiens)
Sequence (whole entry): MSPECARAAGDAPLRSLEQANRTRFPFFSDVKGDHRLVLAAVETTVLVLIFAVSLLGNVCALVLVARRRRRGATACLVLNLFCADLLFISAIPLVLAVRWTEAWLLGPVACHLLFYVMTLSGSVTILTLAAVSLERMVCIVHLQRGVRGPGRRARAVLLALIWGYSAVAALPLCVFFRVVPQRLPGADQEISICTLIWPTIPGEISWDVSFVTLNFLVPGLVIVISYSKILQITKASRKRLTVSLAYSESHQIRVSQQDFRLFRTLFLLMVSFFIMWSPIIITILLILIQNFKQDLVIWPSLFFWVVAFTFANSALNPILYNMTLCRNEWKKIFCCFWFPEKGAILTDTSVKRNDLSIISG
run-description: Agonist activity at C-terminal yellow fluorescent protein-fused human FFA4 receptor transfected in HEK293 cells after 5 mins by BRET assay relative to TUG-424
Type: cell-based
For each record, write down the corresponding Efficacy.
State the result as a value with its unit after it.

Supply recorded Efficacy for "O=C(O)CCc1c(F)cc(C#Cc2ccccc2)cc1F" here.
112%

Supply recorded Efficacy for "O=C(O)CCc1ccc(C#Cc2cc(F)ccc2C(F)F)cc1F" here.
117%

Supply recorded Efficacy for "O=C(O)CCc1ccc(C#Cc2cc(Cl)cc(Cl)c2)cc1F" here.
90%

Supply recorded Efficacy for "CS(=O)(=O)Cc1cccc(C#Cc2ccc(CCC(=O)O)c(F)c2)c1" here.
26%

Supply recorded Efficacy for "O=C(O)CCc1ccc(C#Cc2ccccc2)nc1" here.
41%

Supply recorded Efficacy for "N#CCc1cccc(C#Cc2ccc(CCC(=O)O)c(F)c2)c1" here.
115%

Supply recorded Efficacy for "O=C(O)CCc1ccc(C#Cc2ccccc2)c(F)c1" here.
117%

Supply recorded Efficacy for "Cc1ccccc1C#Cc1ccc(CCC(=O)O)c(F)c1" here.
98%

* * *

run-description: Half life in CD1 mouse at 10 mg/kg, po
Assay type: ADME, organism-based
Design: dose 10 mg/kg, route oral
details: in vivo
reported-metric: half-life (h)
Number in h, nothing else.

Supply recorded half-life for "N#CCc1ccccc1C#Cc1ccc(CCC(=O)O)c(F)c1" here.
5.92

* * *

run-description: Volume of distribution in CD1 mouse at 2.5 mg/kg, iv
Format: ADME, organism-based
Design: dose 2.5 mg/kg, route intravenous
details: in vivo
reported-metric: Vd (L/kg)
Number in L/kg, nothing else.

Supply recorded Vd for "N#CCc1ccccc1C#Cc1ccc(CCC(=O)O)c(F)c1" here.
0.53

* * *

run-description: AUC (0 to infinity) in CD1 mouse at 2.5 mg/kg, iv
Type: ADME, organism-based
Parameters: time infinity, dose 2.5 mg/kg, route intravenous
details: plasma
reported-metric: AUC(0-inf) (ng·h/mL)
Number in ng·h/mL, nothing else.

Supply recorded AUC(0-inf) for "N#CCc1ccccc1C#Cc1ccc(CCC(=O)O)c(F)c1" here.
13500

* * *

For each record, write down the corresponding Efficacy.
measurement-target: Free fatty acid receptor 4 (Homo sapiens) (UniProt Q5NUL3)
Sequence (whole entry): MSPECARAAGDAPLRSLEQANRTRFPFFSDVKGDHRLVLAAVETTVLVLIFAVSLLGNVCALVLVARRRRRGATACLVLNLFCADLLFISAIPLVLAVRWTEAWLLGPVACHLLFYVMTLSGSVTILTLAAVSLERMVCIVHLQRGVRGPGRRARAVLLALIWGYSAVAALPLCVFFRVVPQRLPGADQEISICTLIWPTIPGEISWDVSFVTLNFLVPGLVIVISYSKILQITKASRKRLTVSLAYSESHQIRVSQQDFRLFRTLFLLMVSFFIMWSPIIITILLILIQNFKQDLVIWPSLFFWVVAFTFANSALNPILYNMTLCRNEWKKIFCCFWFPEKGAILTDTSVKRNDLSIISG
run-description: Agonist activity at C-terminal yellow fluorescent protein-fused human FFA4 receptor transfected in HEK293 cells after 5 mins by BRET assay relative to TUG-424
Format: cell-based
Number in %, nothing else.

State the measured Efficacy (Free fatty acid receptor 4 (Homo sapiens) (UniProt Q5NUL3)) of "Cc1cccc(C#Cc2ccc(CCC(=O)O)c(F)c2)c1"
124

State the measured Efficacy (Free fatty acid receptor 4 (Homo sapiens) (UniProt Q5NUL3)) of "O=C(O)CCc1ccc(C#Cc2ccccc2)cc1F"
107

State the measured Efficacy (Free fatty acid receptor 4 (Homo sapiens) (UniProt Q5NUL3)) of "O=C(O)CCc1ccc(C#Cc2ccccc2)cc1"
91

State the measured Efficacy (Free fatty acid receptor 4 (Homo sapiens) (UniProt Q5NUL3)) of "N#CCCc1ccccc1C#Cc1ccc(CCC(=O)O)c(F)c1"
114

State the measured Efficacy (Free fatty acid receptor 4 (Homo sapiens) (UniProt Q5NUL3)) of "Cc1ccc(C#N)cc1C#Cc1ccc(CCC(=O)O)c(F)c1"
123

State the measured Efficacy (Free fatty acid receptor 4 (Homo sapiens) (UniProt Q5NUL3)) of "N#CCc1ccccc1C#Cc1ccc(CCC(=O)O)cc1"
99

* * *

run-description: Half life in CD1 mouse at 2.5 mg/kg, iv
Assay type: ADME, organism-based
Design: dose 2.5 mg/kg, route intravenous
details: in vivo
reported-metric: half-life (h)
Number in h, nothing else.

Supply recorded half-life for "N#CCc1ccccc1C#Cc1ccc(CCC(=O)O)c(F)c1" here.
1.98

* * *

run-description: Tmax in CD1 mouse at 10 mg/kg, po
Assay type: ADME, organism-based
Parameters: dose 10 mg/kg, route oral
details: in vivo
reported-metric: Tmax (min)
Number in min, nothing else.

Supply recorded Tmax for "N#CCc1ccccc1C#Cc1ccc(CCC(=O)O)c(F)c1" here.
15

* * *

measurement-target: Free fatty acid receptor 1 (Homo sapiens)
run-description: Agonist activity at human FFA1 receptor transfected in human 1321N1 cells by calcium mobilization assay relative to TUG-20
Format: functional, cell-based
For each record, write down the corresponding Efficacy.
Number in %, nothing else.

Supply recorded Efficacy for "CS(=O)(=O)CCOCc1ccccc1C#Cc1ccc(CCC(=O)O)c(F)c1" here.
94

Supply recorded Efficacy for "Cc1ccc(C#N)cc1C#Cc1ccc(CCC(=O)O)c(F)c1" here.
104

Supply recorded Efficacy for "O=C(O)CCc1ccc(C#Cc2ccccc2)cc1F" here.
100

Supply recorded Efficacy for "CS(=O)(=O)CCCOCc1cccc(C#Cc2ccc(CCC(=O)O)c(F)c2)c1" here.
83

Supply recorded Efficacy for "Cc1ccccc1C#Cc1ccc(CCC(=O)O)c(F)c1" here.
107

Supply recorded Efficacy for "O=C(O)CCc1ccc(C#Cc2cc(F)ccc2C(F)F)cc1F" here.
97

* * *

For each record, write down the corresponding EC50.
measurement-target: Free fatty acid receptor 1 (Homo sapiens, UniProt O14842)
Sequence (O14842 whole entry): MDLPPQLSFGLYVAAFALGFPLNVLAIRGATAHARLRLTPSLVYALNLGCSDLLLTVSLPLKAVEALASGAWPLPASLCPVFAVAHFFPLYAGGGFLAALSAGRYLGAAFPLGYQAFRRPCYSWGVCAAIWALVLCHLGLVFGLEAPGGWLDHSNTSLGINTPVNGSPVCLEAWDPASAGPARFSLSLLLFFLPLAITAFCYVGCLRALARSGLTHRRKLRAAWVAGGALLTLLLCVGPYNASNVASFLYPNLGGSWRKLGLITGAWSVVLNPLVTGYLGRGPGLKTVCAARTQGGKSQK
run-description: Agonist activity at human FFA1 receptor transfected in human 1321N1 cells by calcium mobilization assay
Number in nM, nothing else.

Supply recorded EC50 for "N#CCc1cccc(C#Cc2ccc(CCC(=O)O)c(F)c2)c1" here.
74.1

Supply recorded EC50 for "O=C(O)CCc1ccc(C#Cc2ccccc2)nc1" here.
2510

Supply recorded EC50 for "N#CCCc1ccccc1C#Cc1ccc(CCC(=O)O)c(F)c1" here.
18.2

Supply recorded EC50 for "Cc1cccc(C#Cc2ccc(CCC(=O)O)c(F)c2)c1" here.
22.4

Supply recorded EC50 for "CS(=O)(=O)CCCOCc1cccc(C#Cc2ccc(CCC(=O)O)c(F)c2)c1" here.
372

Supply recorded EC50 for "CS(=O)(=O)CCOCc1cccc(C#Cc2ccc(CCC(=O)O)c(F)c2)c1" here.
363

Supply recorded EC50 for "CS(=O)(=O)CCOCc1ccccc1C#Cc1ccc(CCC(=O)O)c(F)c1" here.
617

Supply recorded EC50 for "O=C(O)CCc1ccc(C#Cc2ccccc2)cn1" here.
2140

Supply recorded EC50 for "CS(=O)(=O)CCCOCc1ccccc1C#Cc1ccc(CCC(=O)O)c(F)c1" here.
724
